- experimental-system: NAMPT (Homo sapiens, UniProt P43490)
- Construct: His tag; host or cells: E. coli
- Sequence (P43490 whole entry): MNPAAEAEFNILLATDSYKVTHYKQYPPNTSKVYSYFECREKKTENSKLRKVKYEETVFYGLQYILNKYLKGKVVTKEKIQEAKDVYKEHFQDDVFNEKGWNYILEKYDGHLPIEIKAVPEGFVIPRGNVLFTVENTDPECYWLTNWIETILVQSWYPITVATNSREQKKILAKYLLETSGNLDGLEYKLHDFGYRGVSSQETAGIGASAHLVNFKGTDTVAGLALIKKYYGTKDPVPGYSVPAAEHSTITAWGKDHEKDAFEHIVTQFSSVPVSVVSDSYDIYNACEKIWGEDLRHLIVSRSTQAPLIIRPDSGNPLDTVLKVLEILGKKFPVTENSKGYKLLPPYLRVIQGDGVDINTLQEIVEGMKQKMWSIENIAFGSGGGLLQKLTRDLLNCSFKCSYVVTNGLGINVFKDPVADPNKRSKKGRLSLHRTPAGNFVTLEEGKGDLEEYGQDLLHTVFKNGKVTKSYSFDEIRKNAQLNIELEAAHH
- procedure-details: Biochemical inhibition assay: NAMPT enzymatic reaction, NMN quantified by mass spectrometry
- applied-conditions: NAMPT enzymatic reaction; read-out: Biochem IC50
Kindly state IC50 for each of the entries shown.
Just the number please, in nM, no unit attached.

IN: Please report IC50 for the following molecule: `CCCCc1ccc(S(=O)(=O)c2ccc(CNC(=O)c3cc4ccncc4o3)cc2)cc1`
OUT: 18.1

IN: Please report IC50 for the following molecule: `CCc1ccccc1S(=O)(=O)c1ccc(CNC(=O)c2ccc3nccn3c2)cc1`
OUT: 30.2

IN: Please report IC50 for the following molecule: `Cc1ccc(S(=O)(=O)c2ccc(CNC(=O)c3cnc4nccn4c3)cc2)cc1Cl`
OUT: 1.8

IN: Please report IC50 for the following molecule: `CCOc1cccc(S(=O)(=O)c2ccc(CNC(=O)c3cc4cnccc4[nH]3)cc2)c1`
OUT: 7.7

IN: Please report IC50 for the following molecule: `CC(=O)c1ccccc1S(=O)(=O)c1ccc(CNC(=O)c2cc3cnccc3[nH]2)cc1`
OUT: 6

IN: Please report IC50 for the following molecule: `Cc1ccc(S(=O)(=O)c2ccc(CNC(=O)c3cc4ccncc4o3)cc2)cc1F`
OUT: 14

IN: Please report IC50 for the following molecule: `COc1ccc(S(=O)(=O)c2ccc(CNC(=O)c3cc4ccncc4o3)cc2)cc1OC`
OUT: 6.2

IN: Please report IC50 for the following molecule: `Cc1ccc(S(=O)(=O)c2ccc(CNC(=O)c3cc4cnccc4[nH]3)cc2)cc1Cl`
OUT: 8.3

IN: Please report IC50 for the following molecule: `O=C(NCc1ccc(S(=O)(=O)c2ccccc2)cc1)c1cc(-c2cccnc2)no1`
OUT: 33

IN: Please report IC50 for the following molecule: `CS(=O)(=O)c1ccc(S(=O)(=O)c2ccc(CNC(=O)c3cnc4[nH]ncc4c3)cc2)cc1`
OUT: 29.3

IN: Please report IC50 for the following molecule: `CC(=O)c1cccc(S(=O)(=O)c2ccc(CNC(=O)c3cc4cnccc4[nH]3)cc2)c1`
OUT: 12

IN: Please report IC50 for the following molecule: `CCOc1cc(S(=O)(=O)c2ccc(CNC(=O)c3ccc4nccn4c3)cc2)ccc1F`
OUT: 17

IN: Please report IC50 for the following molecule: `Cc1cccc(S(=O)(=O)c2ccc(CNC(=O)c3cnc4nccn4c3)cc2)c1C`
OUT: 4.1

IN: Please report IC50 for the following molecule: `CCCOc1ccc(S(=O)(=O)c2ccc(CNC(=O)c3ccc4nccn4c3)cc2)cc1Cl`
OUT: 6.5

IN: Please report IC50 for the following molecule: `O=C(NCc1ccc(S(=O)(=O)c2ccccc2)cc1)c1cc(-c2ccncc2)n[nH]1`
OUT: 3180

IN: Please report IC50 for the following molecule: `O=C(NCc1ccc(S(=O)(=O)c2ccccc2)cc1)c1cn2ccncc2n1`
OUT: 1490

IN: Please report IC50 for the following molecule: `COc1ccc(F)cc1NS(=O)(=O)c1ccc(CN/C(=N\C#N)Nc2ccncc2)cc1`
OUT: 1.1

IN: Please report IC50 for the following molecule: `O=C(NCc1ccc(S(=O)(=O)c2ccccc2OCc2ccccc2)cc1)c1cc2cnccc2[nH]1`
OUT: 18

###

- experimental-system: NAMPT (Homo sapiens, UniProt P43490)
- Construct: His tag; host or cells: E. coli
- procedure-details: Biochemical inhibition assay: NAMPT enzymatic reaction, NMN quantified by mass spectrometry
- applied-conditions: NAMPT enzymatic reaction; read-out: Biochem IC50
readout: pIC50
# pIC50: negative log10 of molar concentration; output just the value

IN: Please report pIC50 for the following molecule: `Cc1cc(C)c(S(=O)(=O)c2ccc(CNC(=O)c3cnc4[nH]ncc4c3)cc2)c(C)c1`
OUT: 6.87

IN: Please report pIC50 for the following molecule: `COc1cc(Cl)ccc1S(=O)(=O)c1ccc(CNC(=O)c2cc3ccncc3s2)cc1`
OUT: 8.00

IN: Please report pIC50 for the following molecule: `COc1cc(F)cc(S(=O)(=O)c2ccc(CNC(=O)c3cc4ccncc4o3)cc2)c1`
OUT: 7.76

IN: Please report pIC50 for the following molecule: `CS(=O)(=O)c1ccc(S(=O)(=O)c2ccc(CNC(=O)c3ccc4nccn4c3)cc2)cc1`
OUT: 6.98

IN: Please report pIC50 for the following molecule: `COc1ccc(S(=O)(=O)c2ccc(CNC(=O)c3cc4ccncc4s3)cc2)cc1`
OUT: 8.30

###

- experimental-system: NAMPT (Homo sapiens)
- Construct: His tag; host or cells: E. coli
- procedure-details: Biochemical inhibition assay: NAMPT enzymatic reaction, NMN quantified by mass spectrometry
- applied-conditions: NAMPT enzymatic assay; read-out: Biochem IC50
pIC50: −log10 of the molar value.
Answer F if pIC50 is under 8, and T if it is 8 or more.

IN: Check this compound for pIC50 at or above 8: `O=C(NCc1ccc(S(=O)(=O)c2cccc3ccccc23)cc1)c1cc2ccncc2o1`
OUT: T

IN: Check this compound for pIC50 at or above 8: `O=C(NCc1ccc(S(=O)(=O)c2cnn(-c3ccc(F)cc3)c2)cc1)c1cc2cnccc2[nH]1`
OUT: F

IN: Check this compound for pIC50 at or above 8: `O=C(NCc1ccc(S(=O)(=O)c2ccc(-n3cccn3)cc2F)cc1)c1cnc2[nH]ncc2c1`
OUT: F

IN: Check this compound for pIC50 at or above 8: `O=C(NCc1ccc(S(=O)(=O)c2cccc(C(F)(F)F)n2)cc1)c1cc2ccncc2s1`
OUT: T

###

- experimental-system: NAMPT (Homo sapiens)
- Construct: His tag; host or cells: E. coli
- procedure-details: Biochemical inhibition assay: NAMPT enzymatic reaction, NMN quantified by mass spectrometry
- applied-conditions: NAMPT enzymatic reaction; read-out: Biochem IC50
pIC50: −log10 of the molar value.
Answer 0.0 if pIC50 is under 8, and 1.0 if it is 8 or more.

IN: Check this compound for pIC50 at or above 8: `N#Cc1ccc(S(=O)(=O)c2ccc(CNC(=O)c3cnc4[nH]ncc4c3)cc2)cc1`
OUT: 0.0

IN: Check this compound for pIC50 at or above 8: `O=C(NCc1ccc(S(=O)(=O)c2ccc(F)cc2)cc1)c1cc2cnccc2[nH]1`
OUT: 0.0

IN: Check this compound for pIC50 at or above 8: `CS(=O)(=O)c1ccccc1S(=O)(=O)c1ccc(CNC(=O)c2cc3ccncc3o2)cc1`
OUT: 0.0

IN: Check this compound for pIC50 at or above 8: `Cc1cc(F)cc(S(=O)(=O)c2ccc(CNC(=O)c3cnc4nccn4c3)cc2)c1`
OUT: 1.0

IN: Check this compound for pIC50 at or above 8: `CC(=O)c1cccc(S(=O)(=O)c2ccc(CNC(=O)c3cnc4nccn4c3)cc2)c1`
OUT: 1.0

IN: Check this compound for pIC50 at or above 8: `COc1cc(-n2cccn2)ccc1S(=O)(=O)c1ccc(CNC(=O)c2cc3ccncc3s2)cc1`
OUT: 1.0

IN: Check this compound for pIC50 at or above 8: `O=C(NCc1ccc(S(=O)(=O)c2c(F)cccc2Cl)cc1)c1cc2cnccc2[nH]1`
OUT: 0.0

IN: Check this compound for pIC50 at or above 8: `CN(C)C(=O)c1ccc(S(=O)(=O)c2ccc(CNC(=O)c3cc4cnccc4[nH]3)cc2)cc1`
OUT: 0.0

IN: Check this compound for pIC50 at or above 8: `O=C(NCc1ccc(S(=O)(=O)c2ccccc2)cc1)c1ccc2nccn2c1`
OUT: 0.0

IN: Check this compound for pIC50 at or above 8: `COc1ccc(S(=O)(=O)c2ccc(CNC(=O)c3ccc4nccn4c3)cc2)c(F)c1`
OUT: 0.0

IN: Check this compound for pIC50 at or above 8: `COc1ccc(Cl)c(S(=O)(=O)c2ccc(CNC(=O)c3cc4ccncc4s3)cc2)c1`
OUT: 1.0

IN: Check this compound for pIC50 at or above 8: `COc1cc(S(=O)(=O)c2ccc(CNC(=O)c3cc4cnccc4[nH]3)cc2)ccc1Cl`
OUT: 1.0

IN: Check this compound for pIC50 at or above 8: `COc1ccc(F)c(S(=O)(=O)c2ccc(CNC(=O)c3cc4ccncc4o3)cc2)c1`
OUT: 0.0

IN: Check this compound for pIC50 at or above 8: `CCOc1ccccc1S(=O)(=O)c1ccc(CNC(=O)c2ccc3nccn3c2)cc1`
OUT: 0.0

IN: Check this compound for pIC50 at or above 8: `COc1ccc(Cl)cc1S(=O)(=O)c1ccc(CNC(=O)c2ccc3nccn3c2)cc1`
OUT: 0.0

IN: Check this compound for pIC50 at or above 8: `CCCCOc1ccc(S(=O)(=O)c2ccc(CNC(=O)c3cnc4[nH]ncc4c3)cc2)c(C)c1`
OUT: 0.0

IN: Check this compound for pIC50 at or above 8: `CCCOc1ccc(S(=O)(=O)c2ccc(CNC(=O)c3cc4ccncc4o3)cc2)cc1Cl`
OUT: 1.0

IN: Check this compound for pIC50 at or above 8: `Cc1cc(S(=O)(=O)c2ccc(CNC(=O)c3cc4ccncc4o3)cc2)c(C)cc1F`
OUT: 0.0

IN: Check this compound for pIC50 at or above 8: `Cc1ccc(Cl)cc1S(=O)(=O)c1ccc(CNC(=O)c2cnc3nccn3c2)cc1`
OUT: 1.0

IN: Check this compound for pIC50 at or above 8: `COc1ccc(C(F)(F)F)cc1NS(=O)(=O)c1ccc(CNC(=O)c2cc3cnccc3[nH]2)cc1`
OUT: 1.0

IN: Check this compound for pIC50 at or above 8: `CCOc1ccc(S(=O)(=O)c2ccc(CNC(=O)c3cnc4[nH]ncc4c3)cc2)c(C)c1`
OUT: 0.0

IN: Check this compound for pIC50 at or above 8: `CCc1ccccc1S(=O)(=O)c1ccc(CNC(=O)c2cnc3nccn3c2)cc1`
OUT: 1.0

IN: Check this compound for pIC50 at or above 8: `COc1cc(Cl)cc(S(=O)(=O)c2ccc(CNC(=O)c3cc4ccncc4o3)cc2)c1`
OUT: 0.0

IN: Check this compound for pIC50 at or above 8: `COc1ccc(S(=O)(=O)c2ccc(CNC(=O)c3cnc4nccn4c3)cc2)cc1C`
OUT: 1.0
